experimental.target: cloned human μ receptors (Homo sapiens, UniProt P35372)
Construct: expressed in transfected cells; host or cells: human HEK-293S cells, grown in suspension under geneticin selection
Sequence (P35372 whole entry): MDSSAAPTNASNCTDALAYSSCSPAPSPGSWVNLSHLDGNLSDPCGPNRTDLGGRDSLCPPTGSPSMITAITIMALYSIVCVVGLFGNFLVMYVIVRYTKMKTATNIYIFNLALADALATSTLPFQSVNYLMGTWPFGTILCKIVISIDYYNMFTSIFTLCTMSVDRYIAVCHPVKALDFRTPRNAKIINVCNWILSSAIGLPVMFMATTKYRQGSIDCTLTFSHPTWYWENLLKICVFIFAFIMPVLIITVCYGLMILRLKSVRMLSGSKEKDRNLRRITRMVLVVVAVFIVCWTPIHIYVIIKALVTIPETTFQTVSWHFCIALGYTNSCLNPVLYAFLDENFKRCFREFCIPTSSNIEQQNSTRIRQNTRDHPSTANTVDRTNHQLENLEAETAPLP
procedure.text: Human μ receptor radioligand binding assay
condition.parameters: Human μ IC50, membranes of human 293S cells; Table 1
observation.type: IC50
# do not omit the unit; it follows the number

Entry CCN(CC)C(=O)c1ccc(C(c2cccc(C(N)=O)c2)N2CCN(Cc3ccccc3)CC2)cc1 (single isomer, unassigned) under cloned human μ receptors (Homo sapiens, UniProt P35372) had IC50 of 7.7 nM

====

We begin with a simple list: items and their reported pIC50.
experimental.target: cloned human δ receptors (Homo sapiens, UniProt P41143)
Construct: expressed in transfected cells; host or cells: human HEK-293S cells, grown in suspension under geneticin selection
Sequence (P41143 whole entry): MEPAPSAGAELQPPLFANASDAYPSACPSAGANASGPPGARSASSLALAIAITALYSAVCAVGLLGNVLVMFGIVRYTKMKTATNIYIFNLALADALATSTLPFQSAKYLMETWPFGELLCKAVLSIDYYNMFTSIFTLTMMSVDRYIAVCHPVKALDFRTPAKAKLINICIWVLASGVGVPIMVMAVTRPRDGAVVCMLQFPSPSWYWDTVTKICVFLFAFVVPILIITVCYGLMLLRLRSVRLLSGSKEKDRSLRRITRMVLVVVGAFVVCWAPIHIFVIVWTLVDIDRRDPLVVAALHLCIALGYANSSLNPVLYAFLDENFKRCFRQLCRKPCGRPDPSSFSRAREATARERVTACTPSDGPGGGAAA
procedure.text: Human δ receptor radioligand binding assay
condition.parameters: Human δ IC50, Table 2; range over the listed compounds
pIC50: −log10 of the molar value.

I looked up CCN(CC)C(=O)c1ccc(C(c2cccc(C(N)=O)c2)N2CCN(Cc3ccco3)CC2)cc1 (single isomer, unassigned) and its pIC50 for cloned human δ receptors (Homo sapiens, UniProt P41143) was 8.43 to 9.85

Record for CCN(CC)C(=O)c1ccc(C(c2cccc(C(N)=O)c2)N2CCN(Cc3ccccc3)CC2)cc1 (single isomer, unassigned) under target or system cloned human δ receptors (Homo sapiens, UniProt P41143): pIC50 reported as 8.43 to 9.85

Kindly note: cloned human δ receptors (Homo sapiens, UniProt P41143), CCN(CC)C(=O)c1ccc(C(c2cccc(C(=O)NC)c2)N2CCN(Cc3ccccc3)CC2)cc1 (single isomer, unassigned) , pIC50 value reported: 8.43 to 9.85

====

experimental.target: cloned human δ receptors (Homo sapiens)
Construct: expressed in transfected cells; host or cells: human HEK-293S cells, grown in suspension under geneticin selection
procedure.text: Human δ receptor radioligand binding assay
condition.parameters: Human δ IC50, membranes of human 293S cells, displacement of radioligand; Table 1
observation.type: IC50 (nM)
A number alone suffices; assume nM.

Measured IC50 for this entry CCN(CC)C(=O)c1ccc(C(c2cccc(C(N)=O)c2)N2CCN(Cc3ccccc3)CC2)cc1 (single isomer, unassigned) [Compound 1a] on cloned human δ receptors (Homo sapiens): 0.26

====

experimental.target: cloned human δ receptors (Homo sapiens, UniProt P41143)
Construct: expressed in transfected cells; host or cells: human HEK-293S cells, grown in suspension under geneticin selection
procedure.text: Human δ receptor GTP[γ]35S functional assay (high expression)
Format: biochemical
Description: Human 293S cells expressing cloned human κ, δ and μ receptors and neomycin resistance are grown in suspension at 37° C. and 5% CO2 in shaker flasks containing calcium-free DMEM10% FBS, 5% BCS, 0.1% Pluronic F-68, and 600 μg/ml geneticin. […] The agonist activity of the compounds is measured by determining the degree to which the compounds receptor complex activates the binding of GTP to G-proteins to which the receptors are coupled. […]
observation.type: pEC50
Please report pEC50 as the negative decimal logarithm of the molar concentration, giving only the number.

The recorded pEC50 for entry CCN(CC)C(=O)c1ccc(C(c2cccc(C(N)=O)c2)N2CCN(Cc3ccccc3)CC2)cc1 (single isomer, unassigned) equals 9.54

====

experimental.target: cloned human κ receptors (Homo sapiens)
Sequence (P41145 whole entry): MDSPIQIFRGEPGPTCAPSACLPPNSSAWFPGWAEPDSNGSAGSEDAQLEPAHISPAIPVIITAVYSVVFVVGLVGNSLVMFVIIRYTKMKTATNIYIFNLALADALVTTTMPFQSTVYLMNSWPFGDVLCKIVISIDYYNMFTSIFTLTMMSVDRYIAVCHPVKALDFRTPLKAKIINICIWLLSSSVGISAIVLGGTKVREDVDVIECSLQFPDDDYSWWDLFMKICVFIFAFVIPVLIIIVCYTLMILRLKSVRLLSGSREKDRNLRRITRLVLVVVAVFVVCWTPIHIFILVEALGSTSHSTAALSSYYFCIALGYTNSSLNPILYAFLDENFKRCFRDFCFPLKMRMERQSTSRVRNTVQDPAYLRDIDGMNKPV
procedure.text: Human κ receptor radioligand binding assay
condition.parameters: membranes of human 293S cells; Table 1
observation.type: pIC50
// pIC50 is dimensionless: -log10 of concentration (M)

The molecule CCN(CC)C(=O)c1ccc(C(c2cccc(C(N)=O)c2)N2CCN(Cc3ccccc3)CC2)cc1 (single isomer, unassigned) showed pIC50 equal to 6.95
